Hey, just so you know, these numbers are from PubChem BioAssay (NCI).

tested on: T-47D breast; experiment: NCI tumour cell line growth inhibition, 48 h
test-readout: TGI

Which TGI is listed for C=C1C(=O)OC2CCN3CC=C(COC(=O)C(C)(O)C4(CO4)C1C)C23 (centres undefined) ?
> 100 µM

So what's the measured TGI for this one? COC(=O)CCC1=CCC2(SC)C(=O)Nc3cccc1c32 (centres undefined)
> 100 µM

Fill in the blank: the reported TGI of "Cc1ccc(C)c(C2=C(c3cn(C)c4ccccc34)C(=O)NC2=O)c1" is ____.
> 25 µM

So what's the measured TGI for this one? OC1[C@@H]2[C@@H](O)[C@H](O)[C@@H](O)N2C[C@@H]1O (some centres undefined)
> 100 µM
